System: Haemophilus influenzae DILL AMP R
measure: MIC

smilesrepr=CC[C@H]1OC(=O)[C@H](C)[C@@H](O[C@H]2C[C@@](C)(OC)[C@@H](O)[C@H](C)O2)[C@H](C)[C@@H](O[C@@H]2O[C@H](C)C[C@H](N(C)C)[C@H]2O)[C@](C)(O)C[C@@H](C)[C@@H](N2CCC(C)(C)CC2)[C@H](C)[C@@H](O)[C@]1(C)O observedresult="1 µg/mL"

====

Test system: Enterococcus faecium ATCC 8043
Test: In vitro antibacterial activity, agar dilution MIC
Format: cell-based
Conditions: ATCC8043, E. faecium ATCC 8043, Brain Heart Infusion agar, 20-24 hours, read-out: MIC
measure: MIC (µg/mL)

smilesrepr=CC[C@H]1OC(=O)[C@H](C)[C@@H](O[C@H]2C[C@@](C)(OC)[C@@H](O)[C@H](C)O2)[C@H](C)[C@@H](O[C@@H]2O[C@H](C)C[C@H](N(C)C)[C@H]2O)[C@](C)(O)C[C@@H](C)[C@@H](N2CCNCC2)[C@H](C)[C@@H](O)[C@]1(C)O testedon="Enterococcus faecium ATCC 8043" measure=MIC observedresult=12.5
smilesrepr=CC[C@H]1OC(=O)[C@H](C)[C@@H](O[C@H]2C[C@@](C)(OC)[C@@H](O)[C@H](C)O2)[C@H](C)[C@@H](O[C@@H]2O[C@H](C)C[C@H](N(C)C)[C@H]2O)[C@](C)(O)C[C@@H](C)[C@@H](N2CCN(C(C)=O)CC2)[C@H](C)[C@@H](O)[C@]1(C)O testedon="Enterococcus faecium ATCC 8043" measure=MIC observedresult=0.78
